- Test system: IL-1β
- experiment summary: PBMC assay: inhibition of IL-1β release after LPS stimulation (MSD)
- Assay type: cell-based
- applied conditions: Homo sapiens, PBMC, 6 h, human PBMCs, 100 ng/ml LPS for 6 hrs, MSD, 96 well plates; read-out: IL1β IC50
Consider the following compounds; for each one, report its pIC50.
pIC50 (log units): -log10 of the concentration in mol/L.

[in] Look up pIC50 with IL-1β for this compound: CC(C)c1nn(CC(=O)Nc2ccc3nncn3n2)c(=O)c2ccc(C3CCC3)cc12
[out] 6.74

[in] Another compound: CC(C)c1nn(CC(=O)N[C@@H]2CC[C@@](C)(O)C2)c(=O)c2ccc(C(F)(F)F)cc12
[out] 5.79

[in] Try COC(C)c1nn(CC(=O)N[C@H]2C[C@@](C)(O)C2)c(=O)c2ccc(C(F)(F)F)cc12 (stereo partly shown) next.
[out] 5.79

[in] Another compound: CC(C)c1nn(CC(=O)Nc2ccc(=O)n(C)n2)c(=O)c2ccc(Br)cc12
[out] 6.85

[in] Same again, this time with CC(C)c1nn(CC(=O)Nc2ccc3nncn3c2)c(=O)c2ccc(N(C)C)cc12
[out] 6.37

[in] Also CC(C)c1nn(CC(=O)Nc2ccn(C)c(=O)n2)c(=O)c2ccc(C(F)(F)F)cc12 , if possible.
[out] 5.76

[in] Field entry: COC(C)c1nn(CC(=O)N[C@H]2C[C@@](C)(O)C2)c(=O)c2ccc(Br)cc12 (stereo partly shown)
[out] 6.08

[in] And CCc1nn(CC(=O)Nc2ccc3nncn3c2)c(=O)c2ccc(C(F)(F)F)cc12 ?
[out] 7.12

[in] Follow-up entry: CC(C)c1nn(CC(=O)Nc2cc(C(F)F)[nH]n2)c(=O)c2ccc(C(F)(F)F)cc12
[out] 6.46

[in] Could you do the same for Cc1nnc2cc(NC(=O)Cn3nc(C(C)C)c4cc(C(F)(F)F)ccc4c3=O)ccn12 , please?
[out] 4.79

[in] Param item: CC(C)c1nn(CC(=O)N[C@H]2C[C@@H](O)C2)c(=O)c2ccc(C(F)(F)F)cc12
[out] 6.17

[in] Follow-up item: CC(C)c1nn(CC(=O)Nc2ccc3c(ncn3C)n2)c(=O)c2ccc(C(F)(F)F)cc12
[out] 4.87

[in] Record: CC(C)c1nn(CC(=O)N[C@H]2C[C@@](C)(O)C2)c(=O)c2ccc(OCC(F)(F)F)cc12
[out] 4.89

[in] Next record, please: CC(C)c1nn(CC(=O)NC2CCC(C)(C)OC2)c(=O)c2ccc(C(F)(F)F)cc12 (stereo not shown)
[out] 5.53

[in] What about this compound? CCN1C[C@H](F)C[C@@H](NC(=O)Cn2nc(C(C)C)c3cc(C(F)(F)F)ccc3c2=O)C1
[out] 6.50
